Test: Quantitative High-Throughput drug screen in 47 multiple myeloma cell lines against the NCATS MIPE library collection: MM1S_ATCC cell viability assay (AID 1918980); note: nearly all actives have a fitted effect of over 45% in size
Conditions: MM1S myeloma viability, CellTiter-Glo ATP luminescence, 48 h; series mostly up to 45.8 µM
Records with an inconclusive call do not appear. Calls of active or inactive are those of the source. Calls come from the whole dose curve; as a rule, active = well fitted cell-killing curve with a large enough effect; inconclusive = small, poorly fitted or top-dose-only effect, or effect the other way; inactive = no such curve, though single readings can be large or run the other way.
Use one of these outcomes when replying: true (active), false (inactive)

Answer briefly: the call reported for CCCCCC[C@H]1C(=O)O[C@H](C)[C@H](NC(=O)c2cccc(NC=O)c2O)C(=O)O[C@@H](C)[C@@H]1OC(=O)CC(C)C in this assay.
true

Answer briefly: the call reported for CCc1c(C(=O)C(N)=O)c2c(OCC(=O)O)cccc2n1Cc1ccccc1 in this assay.
false

Answer briefly: the call reported for O=[N+]([O-])c1ncc[nH]1 in this assay.
false

Answer briefly: the call reported for CCNC(=O)CC1N=C(c2ccc(Cl)cc2)c2cc(OC)ccc2-n2c(C)nnc21 (stereo not drawn) in this assay.
true

Answer briefly: the call reported for C1=C2CCCN[C@H]2[C@@H]2C[C@H]1[C@@H]1CCCCN1C2 in this assay.
false

Answer briefly: the call reported for Cc1c(C(=O)Nc2cccc(C(F)(F)F)c2)cc(-c2ccccc2)n1CCCN1CCOCC1 in this assay.
true

Answer briefly: the call reported for CO[C@H]1CCC(O[C@H]2C[C@H]([C@]3(C)CC[C@]4(C[C@H](O)[C@@H](C)[C@@H]([C@@H](C)C=C(C)C(=O)[C@H](C)C[C@H](C)C(=O)O)O4)O3)O[C@]3(O[C@@H]([C@H]4O[C@@](O)(CO)[C@H](C)C[C@H]4C)C[C@H]3C)[C@H]2C)O[C@H]1C (stereo partly drawn) in this assay.
true

Answer briefly: the call reported for N=c1c2c(-c3ccccc3)c(-c3ccccc3)n(Cc3ccccc3)c2ncn1C1CCC(O)CC1 (stereo not drawn) in this assay.
true

----------
Experiment: Quantitative High-Throughput drug screen in 47 multiple myeloma cell lines against the NCATS MIPE library collection: KMS28BM_JCRB cell viability assay (AID 1919874); note: nearly all actives have a fitted effect of over 35% in size; note: potency is the fitted concentration of half-maximal effect
Details: CellTiter-Glo ATP, 48 h; series mostly up to 45.8 µM
Inconclusive results are not listed. Active and inactive are the calls of the source. Calls follow the shape of the dose curve; as a rule, active = well fitted cell-killing curve with a large enough effect; inconclusive = small, poorly fitted or top-dose-only effect, or effect the other way; inactive = no such curve, though single readings can be large or run the other way.
resultType: Potency

C[C@]12Cc3cn[nH]c3C[C@@H]1CC[C@@H]1[C@H]2CC[C@@]2(C)[C@H]1CC[C@]2(C)O = inactive
O=c1[nH]c2ccc(Cl)cc2c(N[C@@H]2CN3CCC2CC3)c1-c1nc2ccccc2[nH]1 = 1.32 µM (active)
COCC1(CO)C(=O)C2CCN1CC2 (stereo unspecified) = 23.5 µM (active)
C[C@@H]1CC[C@@]2(OC1)O[C@H]1C[C@H]3[C@@H]4CC=C5C[C@@H](O[C@@H]6O[C@H](CO)[C@@H](O[C@@H]7O[C@@H](C)[C@H](O)[C@@H](O)[C@@H]7O)[C@H](O)[C@@H]6O[C@@H]6O[C@@H](C)[C@H](O)[C@@H](O)[C@@H]6O)CC[C@]5(C)[C@@H]4CC[C@]3(C)[C@@H]1[C@H]2C = 2.96 µM (active)
COc1cc([C@@H]2c3cc4c(cc3[C@@H](O)C3COC(=O)C32)OCO4)cc(OC)c1O (stereo partly specified) = 0.0033 µM (active)

Batch of 3 compounds: report Potency for each.
1. C=CCON=C(C[C@H]1O[C@@H]2O[C@]3(C)CC[C@@H]4[C@H](C)CC[C@@H]([C@H]1C)[C@@]24OO3)[C@H]1O[C@@H]2O[C@]3(C)CC[C@H]4[C@H](C)CC[C@@H]([C@@H]1C)[C@@]24OO3
2. NC1CC1c1ccccc1 (stereo unspecified)
3. COc1ccc(CC2NCCc3cc(OC)c(OC)cc32)cc1OC (stereo unspecified)

1. 0.332 µM (active)
2. inactive
3. inactive

Batch of 5 compounds: report Potency for each.
1. NC1=NC(=O)N2CC12 (stereo unspecified)
2. COC1=CC(C)=C[C@@H](C)[C@@H](O)[C@@H](C)CC(C)=CC=C[C@H](OC)[C@H]([C@@H](C)[C@@H](O)[C@H](C)[C@@]2(O)C[C@@H](O)[C@H](C)[C@@H](C(C)C)O2)OC1=O
3. O=c1cccc2n1CC1CNC[C@H]2C1
4. CC[C@@H](C(N)=O)N1CCCC1=O
5. O=C(Oc1ccc([N+](=O)[O-])cc1)N1CCC(C(O)(c2ccc3c(c2)OCO3)c2ccc3c(c2)OCO3)CC1

inactive
20.9 µM (active)
5.26 µM (active)
inactive
inactive
